assay-target: HLA-A*0201 (HLA-A2.1) (Homo sapiens, UniProt P04439, D140Y/D185E/D98H/E176V/E277Q/G131W/G231S/I119V/I121R/I166T/I218V/L300P/L318F/N151K/N90K/P208A/P217A/Q86G/Q94H/R138H/R169H/T345S)
procedure-summary: biochemical
Format: binding
pIC50: −log10 of the molar value. No end group written: not given here.

monomer-sequence	result-qualifier	pIC50
CQAHNSDTGV [Peptide 9013.0190]	<	4.70
ALYWYKTGI [Peptide 86.0176]	=	6.18
VQWAYDHDI [Peptide 86.0205]	=	5.16
TVESTPFNV [Peptide 9013.0013]	=	4.76
KTITVSAEV [Peptide 9013.0083]	=	6.01
AIFGVNPTV [Peptide 1578.25]	=	6.69
SLMKFLQGSV [Peptide 1578.04]	=	6.36
RILQQPLFI [Peptide 1545.03]	=	6.85
EVFIPNITV [Peptide 9013.0062]	<	4.70
LQGSVICFV [Peptide 1578.06]	=	7.64
CLAHNSDTGL [Peptide 9013.0191]	=	4.87
YTNWSEIYI [Peptide 1578.56]	=	7.21
RTTVKTITVSV [Peptide 9013.0318]	=	5.80
TAKLTIESV [Peptide 9013.0009]	<	4.70
RLLQQLLFI [Peptide 1525.10]	=	7.57
FQKYKTLFV [Peptide 1578.54]	=	5.94
SLSAYIIRV [Peptide 1577.43]	=	7.40
GLFRVYPEL [Peptide 9013.0039]	=	7.37

====

assay-target: A*0206 (Homo sapiens, UniProt P04439, D140Y/D185E/D98H/E176V/E277Q/F33Y/G131W/G231S/I119V/I121R/I166T/I218V/L300P/L318F/N151K/N90K/P208A/P217A/Q86G/Q94H/R138H/R169H/T345S)
procedure-summary: biochemical
Format: binding
pIC50: −log10 of the molar value. No end group written: not given here.
// reported pIC50 for each item listed

monomer-sequence	result-qualifier	pIC50
TVTTITVYV [Peptide 9013.0068]	=	7.02
TLKLTIEST [Peptide 9013.0010]	<	4.70
IQNDTGFYV [Peptide 9013.0035]	=	7.49
ALAEAMSQA [Peptide 1539.04]	=	7.77
GMIDDVTAI [Peptide 1578.44]	=	7.43
ALDGNDISV [Peptide 1578.33]	=	7.32
LTFWNPPTV [Peptide 9013.0006]	=	8.28
TLELFISNI [Peptide 9013.0082]	=	5.41
RQIIGYVIGV [Peptide 9013.0139]	=	7.33
RTLQQLMFI [Peptide 1525.23]	=	7.26
TLFNVTRNDV [Peptide 9013.0230]	=	5.31
ALYWYRTGI [Peptide 86.0181]	=	5.33
QLSNGNRTL [Peptide 9013.0050]	<	4.70
GMGCTGWFEV [Peptide 1578.19]	=	5.84
ILNDTGFYT [Peptide 9013.0036]	=	5.42
AVAFTCEPEV [Peptide 9013.0155]	=	6.70
ELLLLVHNL [Peptide 9013.0022]	=	5.14
VQWAYDNDV [Peptide 86.0190]	=	6.37
ALFNVQEGV [Peptide 1578.41]	=	7.35
VLAEAMSRV [Peptide 1516.10]	=	7.12
QLSNGNRTLTV [Peptide 9013.0334]	<	4.70
NLNLSCHAV [Peptide 9013.0054]	=	5.15
VAWDSVYYV [Peptide 1593.57]	=	8.48
MAFEYALLA [Peptide 1578.09]	=	7.00
IQGAVISFV [Peptide 1578.13]	=	7.46
TLQATPGPA [Peptide 9013.0028]	<	4.70
LTIESTPFNVV [Peptide 9013.0267]	=	7.11
TVELFIPNITV [Peptide 9013.0300]	=	5.78
TLTTITVYA [Peptide 9013.0069]	=	6.18
LIQPYSIYA [Peptide 86.0202]	=	6.37
WQRLLLTASLV [Peptide 9013.0253]	=	6.30
RVLQQLLFI [Peptide 1545.01]	=	8.07
FLSALKLFL [Peptide 1578.17]	=	7.35
LLTFWNPPTV [Peptide 9013.0120]	=	6.00
SLLTFWNPPTV [Peptide 9013.0256]	=	6.27
KLTFLCVTL [Peptide 1516.14]	=	6.91
WLRLLLTASLL [Peptide 9013.0254]	=	4.93
IIQNDTGFYV [Peptide 9013.0146]	=	6.70
SLNRSDPVTL [Peptide 9013.0233]	<	4.70
LTFWNPPTTV [Peptide 9013.0122]	=	6.47
SLNRSDPVT [Peptide 9013.0099]	<	4.70
IQNDTGFYTV [Peptide 9013.0149]	=	7.20
ALYWYRTGM [Peptide 86.0189]	=	4.81
LLLVHNLPQHV [Peptide 9013.0275]	=	5.29
SLMKFLQGSV [Peptide 1578.04]	=	5.84
ALYWFRTAM [Peptide 86.0195]	=	4.86
YVSGANLNL [Peptide 9013.0100]	=	6.64
QQSTQELFV [Peptide 9013.0056]	=	6.23
RLENAILFTA [Peptide 1578.51]	=	5.34
RLQLSNGNRTV [Peptide 9013.0328]	<	4.70
QLSNGNRTLV [Peptide 9013.0229]	<	4.70
TTQDVSLEV [Peptide 1593.54]	=	6.17
LLIESTPFNVA [Peptide 9013.0268]	=	6.97
